Provenance of the data: paper PMC9233738

test: Aqueous solubility, Biomek FX with pION μSOL evolution software; type: physicochemical; conditions: aqueous solution, pH 6.5
PARAMETER: solubility

{"COMPOUND": "O=C(CN1CCC2(CC1)CC(=O)c1ccc3ccccc3c1O2)c1ccc(F)c(F)c1", "solubility": "40 to 80 µM"}
{"COMPOUND": "O=C1CC2(CCN(CCC3CCCCC3)CC2)Oc2c1ccc1ccccc21", "solubility": "10 to 20 µM"}
{"COMPOUND": "O=C1CC2(CCN(CCc3ccc(F)c(F)c3)CC2)Oc2c1ccc1ccccc21", "solubility": "10 to 20 µM"}

Consider the record given below.
q: Fill in: solubility of O=C(CN1CCC2(CC1)CC(O)c1ccc3ccccc3c1O2)c1ccc(F)c(F)c1 (stereo not shown) is ___
a: 20 to 40 µM

====

As shown below, each of these compounds has a reported solubility value.
assay: Aqueous solubility at pH 2.0, in-house HPLC assay; type: physicochemical; conditions: aqueous solution, pH 2

{"COMPOUND": "OC1CC2(CCNCC2)Oc2c1ccc1ccccc21 (stereo not shown)", "solubility": "40 to 80 µM"}

q: Fill in: solubility of O=C(CN1CCC2(CC1)CC(O)c1ccc3ccccc3c1O2)c1ccc(F)c(F)c1 (stereo not shown) is ___
a: 20 to 40 µM

q: Fill in: solubility of OC1CC2(CCN(CCC3CCCCC3)CC2)Oc2c1ccc1ccccc21 (stereo not shown) is ___
a: 40 to 80 µM

q: Fill in: solubility of Fc1ccc(CCN2CCC3(CCc4ccc5ccccc5c4O3)CC2)cc1F is ___
a: 20 to 40 µM

====

assay: Aqueous solubility, Biomek FX with pION μSOL evolution software; assay type: physicochemical; conditions: aqueous solution, pH 6.5
As shown below, each of these molecules has a reported solubility value.

Example entries and their recorded answers appear below.
{"MOLECULE": "OC1CC2(CCN(CCC3CCCCC3)CC2)Oc2c1ccc1ccccc21 (stereo not drawn)", "solubility": "20 to 40 µM"}
{"MOLECULE": "CCN1CCC2(CC1)CC(O)c1ccc3ccccc3c1O2 (stereo not drawn)", "solubility": "20 to 40 µM"}

Consider the record given below.
q: Fill in: solubility of c1ccc2c3c(ccc2c1)CCC1(CCNCC1)O3 is ___
a: 20 to 40 µM

====

experiment: Aqueous solubility, Biomek FX with pION μSOL evolution software; type: physicochemical; conditions: aqueous medium, pH 6.5
PARAMETER: solubility

{"MOLECULE": "OC1CC2(CCN(CCc3ccccc3)CC2)Oc2c1ccc1ccccc21 (stereo not drawn)", "PARAMETER": "solubility", "TEST_VALUE": "40 to 80 µM"}
{"MOLECULE": "O=C1CC2(CCN(CCCc3ccccc3)CC2)Oc2c1ccc1ccccc21", "PARAMETER": "solubility", "TEST_VALUE": "20 to 40 µM"}

q: Fill in: solubility of OC1CC2(CCN(Cc3ccccc3)CC2)Oc2c1ccc1ccccc21 (stereo not drawn) is ___
a: 40 to 80 µM

q: Fill in: solubility of OC1CC2(CCN(CCCc3ccccc3)CC2)Oc2c1ccc1ccccc21 (stereo not drawn) is ___
a: ≥ 80 µM

q: Fill in: solubility of O=C1CC2(CCN(CCc3ccccc3)CC2)Oc2c1ccc1ccccc21 is ___
a: 40 to 80 µM

q: Fill in: solubility of O=C1CC2(CCN(Cc3ccccc3)CC2)Oc2c1ccc1ccccc21 is ___
a: 40 to 80 µM

====

assay: Aqueous solubility at pH 2.0, in-house HPLC assay; assay type: physicochemical; conditions: aqueous medium at pH 2.0, pH 2
PARAMETER: solubility

Example entries and their recorded answers appear below.
{"MOLECULE": "O=C1CC2(CCN(CCc3ccccc3)CC2)Oc2c1ccc1ccccc21 [Compound 2d]", "TEST_VALUE": "≥ 80 µM"}
{"MOLECULE": "OC1CC2(CCN(CCc3ccccc3)CC2)Oc2c1ccc1ccccc21 (stereo not shown) [Compound 3d]", "TEST_VALUE": "40 to 80 µM"}
{"MOLECULE": "c1ccc(CN2CCC3(CCc4ccc5ccccc5c4O3)CC2)cc1 [Compound 5c]", "TEST_VALUE": "20 to 40 µM"}

q: Fill in: solubility of O=C1CC2(CCN(CCCc3ccccc3)CC2)Oc2c1ccc1ccccc21 [Compound 2f] is ___
a: 40 to 80 µM

q: Fill in: solubility of OC1CC2(CCN(Cc3ccccc3)CC2)Oc2c1ccc1ccccc21 (stereo not shown) [Compound 3c] is ___
a: 40 to 80 µM

q: Fill in: solubility of O=C1CC2(CCN(Cc3ccccc3)CC2)Oc2c1ccc1ccccc21 [Compound 2c] is ___
a: ≥ 80 µM

q: Fill in: solubility of OC1CC2(CCN(CCCc3ccccc3)CC2)Oc2c1ccc1ccccc21 (stereo not shown) [Compound 3f] is ___
a: ≥ 80 µM

====

experiment: Aqueous solubility at pH 2.0, in-house HPLC assay; format: physicochemical; conditions: aqueous solution, pH 2
As shown below, each of these compounds has a reported solubility value.

q: Fill in: solubility of O=C1CC2(CCN(CCC3CCCCC3)CC2)Oc2c1ccc1ccccc21 is ___
a: 20 to 40 µM

q: Fill in: solubility of c1ccc2c3c(ccc2c1)CCC1(CCN(CCC2CCCCC2)CC1)O3 is ___
a: 40 to 80 µM

q: Fill in: solubility of c1ccc2c3c(ccc2c1)CCC1(CCNCC1)O3 is ___
a: 40 to 80 µM

====

As shown below, each of these molecules has a reported solubility value.
experiment: Aqueous solubility at pH 2.0, in-house HPLC assay; assay type: physicochemical; details: aqueous solution, pH 2

Example entries and their recorded answers appear below.
{"MOLECULE": "OC(CN1CCC2(CCc3ccc4ccccc4c3O2)CC1)c1ccc(F)c(F)c1 (stereo not drawn) [Compound 5i]", "solubility": "40 to 80 µM"}
{"MOLECULE": "O=C(CN1CCC2(CC1)CC(=O)c1ccc3ccccc3c1O2)c1ccc(F)c(F)c1 [Compound 2g]", "solubility": "40 to 80 µM"}

q: Fill in: solubility of CCN1CCC2(CC1)CC(O)c1ccc3ccccc3c1O2 (stereo not drawn) [Compound 3b] is ___
a: 20 to 40 µM
